All figures here come from patent US20200017592A1.

Overview of reported pKd across a group of binders:
Biological target: T1, in-line fusion protein of human IL-36R extracellular domain and IL1RAcP extracellular domain expressed with … (human; mouse, UniProt Q9HB29 20-337; Q9NPH3 21-359, limits assumed)
T1 construct: not shown: mouse IgG2a Fc
T1 sequence (looked up): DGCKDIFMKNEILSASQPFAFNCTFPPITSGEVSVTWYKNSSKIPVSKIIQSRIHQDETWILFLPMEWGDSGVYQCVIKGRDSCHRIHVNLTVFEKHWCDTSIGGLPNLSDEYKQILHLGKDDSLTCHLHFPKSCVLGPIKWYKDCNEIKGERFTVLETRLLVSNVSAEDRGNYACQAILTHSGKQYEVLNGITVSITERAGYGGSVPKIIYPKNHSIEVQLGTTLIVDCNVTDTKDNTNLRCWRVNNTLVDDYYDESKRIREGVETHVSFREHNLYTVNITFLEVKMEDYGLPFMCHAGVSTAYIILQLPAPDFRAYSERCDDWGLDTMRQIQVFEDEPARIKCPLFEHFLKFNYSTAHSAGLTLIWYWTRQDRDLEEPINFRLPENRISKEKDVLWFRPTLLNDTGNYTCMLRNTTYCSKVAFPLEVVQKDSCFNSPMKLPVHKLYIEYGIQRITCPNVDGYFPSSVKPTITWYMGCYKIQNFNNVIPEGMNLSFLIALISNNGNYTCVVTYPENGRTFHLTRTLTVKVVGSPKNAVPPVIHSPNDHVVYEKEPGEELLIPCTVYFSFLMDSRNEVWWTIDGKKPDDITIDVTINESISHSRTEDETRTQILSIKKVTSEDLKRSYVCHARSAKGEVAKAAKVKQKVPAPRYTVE
Test: SPR Biacore 4000, mAb captured on anti-hFc, 25C
Notebook: values listed as pKd are -log10 of the concentration (mol/L).

Here's what some known entries look like.
binder: H4H14706P2 (antibody, human IgG4 S228P, kappa, V domains shown, Fully human anti-IL-36R antibody) VH: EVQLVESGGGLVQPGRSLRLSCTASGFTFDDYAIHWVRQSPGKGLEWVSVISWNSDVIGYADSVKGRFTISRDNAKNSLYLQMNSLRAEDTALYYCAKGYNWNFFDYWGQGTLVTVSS VL: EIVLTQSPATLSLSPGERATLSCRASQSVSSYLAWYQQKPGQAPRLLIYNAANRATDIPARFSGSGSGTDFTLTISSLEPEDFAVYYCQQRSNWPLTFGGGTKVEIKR
pKd: 9.63
--
binder: H4H14699P2 (antibody, human IgG4 S228P, kappa, V domains shown, Fully human anti-IL-36R antibody) VH: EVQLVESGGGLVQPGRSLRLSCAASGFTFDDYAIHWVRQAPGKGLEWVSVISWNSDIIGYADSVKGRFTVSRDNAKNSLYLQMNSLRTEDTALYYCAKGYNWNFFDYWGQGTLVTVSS VL: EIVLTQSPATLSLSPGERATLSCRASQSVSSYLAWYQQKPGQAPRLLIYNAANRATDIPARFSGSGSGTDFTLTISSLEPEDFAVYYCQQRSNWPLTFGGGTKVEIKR
pKd: 9.34
--
binder: H4H14731P (antibody, human IgG4 S228P, kappa, V domains shown, Fully human anti-IL-36R antibody) VH: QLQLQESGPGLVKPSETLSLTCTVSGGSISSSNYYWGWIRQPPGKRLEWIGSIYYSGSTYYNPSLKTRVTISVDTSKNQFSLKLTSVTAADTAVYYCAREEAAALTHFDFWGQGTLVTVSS VL: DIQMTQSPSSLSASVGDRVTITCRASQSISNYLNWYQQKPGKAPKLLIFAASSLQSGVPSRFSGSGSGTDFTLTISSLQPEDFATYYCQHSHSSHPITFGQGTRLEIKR
pKd: 8.35
--
binder: H4H14709P (antibody, human IgG4 S228P, kappa, V domains shown, Fully human anti-IL-36R antibody) VH: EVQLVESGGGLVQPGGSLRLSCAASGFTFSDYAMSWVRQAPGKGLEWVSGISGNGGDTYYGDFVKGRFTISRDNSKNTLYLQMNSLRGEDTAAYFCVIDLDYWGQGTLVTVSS VL: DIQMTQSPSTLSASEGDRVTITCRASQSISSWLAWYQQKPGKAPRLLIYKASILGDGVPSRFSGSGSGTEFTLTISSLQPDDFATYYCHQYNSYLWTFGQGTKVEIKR
pKd: 9.39

Next:
# input Which pKd is listed for H4H14757P (antibody, human IgG4 S228P, kappa, V domains shown, Fully human anti-IL-36R antibody) VH: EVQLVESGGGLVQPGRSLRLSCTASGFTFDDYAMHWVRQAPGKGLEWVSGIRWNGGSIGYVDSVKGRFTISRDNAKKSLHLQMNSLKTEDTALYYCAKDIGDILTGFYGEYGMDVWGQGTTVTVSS VL: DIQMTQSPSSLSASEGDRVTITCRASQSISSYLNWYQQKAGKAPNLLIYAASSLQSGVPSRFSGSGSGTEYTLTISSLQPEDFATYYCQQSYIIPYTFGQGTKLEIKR ?
# output 9.67
